Test system: α1,3-L-fucosyltransferase of the soluble fraction of human ovarian tumor
Test: Assay of α1,3-fucosyltransferase with synthetic acceptors, partially purified enzyme of ovarian tumor soluble fraction
Type: biochemical
Details: acceptor 3.0 mM, 37° C. 18 h
[14C] Fucose Incorporated (CPM) overview

Record excerpt, results attached:
>  <molecule>
CC(=O)N[C@H]1C(O)O[C@H](CO)[C@@H](O[C@@H]2O[C@H](CO)[C@H](O)[C@H](OS(=O)(=O)O)[C@H]2O)[C@@H]1O (some centres unmarked)

>  <[14C] Fucose Incorporated (CPM)>
33049 CPM

$$$$
>  <molecule>
CC(=O)N[C@H]1[C@H](OCc2ccccc2)O[C@H](CO)[C@@H](O[C@@H]2O[C@H](CO)[C@H](O)[C@H](O)[C@H]2O)[C@@H]1O

>  <[14C] Fucose Incorporated (CPM)>
8249 CPM

$$$$

Given CC(=O)N[C@H]1C(O)O[C@H](CO)[C@@H](O[C@@H]2O[C@H](CO)[C@H](O)[C@H](O)[C@H]2O)[C@@H]1O (some centres unmarked) , state its recorded [14C] Fucose Incorporated (CPM). 4480 CPM

Next: CC(=O)N[C@H]1C(O)O[C@H](CO)[C@@H](O[C@@H]2O[C@H](CO)[C@H](O)[C@H](O)[C@H]2O)[C@@H]1O[C@@H]1O[C@@H](C)[C@@H](O)[C@@H](O)[C@@H]1O (some centres unmarked) 144 CPM

Next: CC(=O)N[C@H]1[C@H](OCc2ccccc2)O[C@H](CO)[C@@H](O)[C@@H]1O[C@@H]1O[C@H](CO)[C@H](O)[C@H](OS(=O)(=O)O)[C@H]1O 30704 CPM
